The origin of these recorded values is patent US12180213B2.

# System Name: human 5-HT2A receptor (Homo sapiens (Human))
# Sequence (P28223 whole entry): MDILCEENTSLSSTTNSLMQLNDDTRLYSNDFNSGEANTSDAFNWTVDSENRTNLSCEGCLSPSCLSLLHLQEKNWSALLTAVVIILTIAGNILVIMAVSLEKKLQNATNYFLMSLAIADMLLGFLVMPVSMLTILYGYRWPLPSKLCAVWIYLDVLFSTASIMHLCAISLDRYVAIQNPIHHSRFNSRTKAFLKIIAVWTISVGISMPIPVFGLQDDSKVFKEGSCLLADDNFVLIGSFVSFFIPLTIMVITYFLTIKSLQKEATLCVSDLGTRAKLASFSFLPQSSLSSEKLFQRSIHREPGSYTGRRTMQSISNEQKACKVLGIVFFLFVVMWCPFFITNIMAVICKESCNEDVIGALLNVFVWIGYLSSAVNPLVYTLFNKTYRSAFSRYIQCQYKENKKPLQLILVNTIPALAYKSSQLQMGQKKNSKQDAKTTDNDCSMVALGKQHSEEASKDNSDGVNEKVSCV
Below, each of the compounds is paired with its reported pKi value.
Note on units: pKi is unitless, being -log10 of a concentration expressed in mol/L.

The following compounds have reported results that may help.
CC1CC(CCN2CCC(c3noc4ccccc34)CC2)C(=O)c2ccn(C)c21 (stereo not shown) | 9.06
Cn1ncc2c1CCCC(CCN1CCN(c3noc4ccccc34)CC1)C2=O (stereo not shown) | 9.12

Problem: # input compound: Cc1cc2c(o1)C(=O)N(CCN1CCN(c3nsc4ccccc34)CC1)CC2 ; wanted: its pKi
Result: 8.51

Problem: Consider next the compound Cc1noc2c1C(=O)N(CCN1CCN(c3noc4ccccc34)CC1)CCC2 in the same way.
Result: 8.35
